# System: Plasmodium berghei
# experimental_details: Screen against P. berghei liver stage (PbLuc), transformed with Luciferase, at 10uM
# Format: functional, HepG2
# cond: tested at 10 uM
Screen size: about 69,000 compounds; about 8,600 (12%) showed an effect of 50% or more. Shown is part of a subset that was picked to be rich in strong results.
readout_name: INHIBITION (%)
Give just the numeric value; % need not be written.

Please review the following examples before continuing.
* Cn1cc(C2CCCN2C(=O)CCn2c(=O)oc3ccccc32)cn1 (configuration not stated) | -13.7
* O=C(CCC1CCN(C2CSCCSC2)CC1)NCC1CCCO1 (configuration not stated) | 34.9
* O=C(Cc1ccc(Cl)cc1)N1CCC(O)(C(F)(F)F)C1 (configuration not stated) | -55
* O=C([C@@H]1CC[C@@H]2[C@@H](CCN2c2ccncn2)O1)N1CCCCO1 | 5.68
* CNC(=O)N1CCCCC1CCNS(C)(=O)=O (configuration not stated) | -2.48

Enquiry: Provide INHIBITION, system Plasmodium berghei, entry c1cncc(C(Cn2cnnc2)N2CCOCC2)c1 (configuration not stated)
Return: 7.31

Enquiry: Retrieve INHIBITION on Plasmodium berghei; query "O=C1CCCN1Cc1ncn2c1CN(Cc1cccs1)CCC2"
Return: 21.8

Enquiry: Identify measured INHIBITION obtained with Plasmodium berghei for Cc1cccc(OCc2ccc(C(=O)N3N=CCC3(O)C(F)(F)F)o2)c1 (configuration not stated) .
Return: 69.2

Enquiry: Find INHIBITION for "NC(=O)CC1CCN(C(=O)NCc2cccc(-n3cccn3)c2)CC1" on Plasmodium berghei and write it down.
Return: -0.378

Enquiry: Please tell me the measured INHIBITION for "CN(C)CCn1c2c(ccc1=O)CCN(C(=O)c1cccs1)CC2" ; system: Plasmodium berghei.
Return: 13.5

Enquiry: Recall the reported INHIBITION of CNC(=O)CCc1cc(C2CCCCN2C(C)C)nc(C)n1 (configuration not stated) on Plasmodium berghei and write it down.
Return: 15.1

Enquiry: Provide the reported INHIBITION (system: Plasmodium berghei) for "CN(Cc1ccco1)Cc1cnc2n1CCN(c1ncccn1)CC2"
Return: 2.4

Enquiry: Please indicate recorded INHIBITION of "COC(=O)c1cc(C)nc(N2CCN(Cc3cc(C(C)C)no3)CC2)n1" measured with Plasmodium berghei.
Return: 23.1

Enquiry: State INHIBITION on Plasmodium berghei. Entry: CN(C)c1ccc(CC2CCCN(c3cnccn3)C2)nn1 (configuration not stated)
Return: -14.2

Enquiry: // fetch INHIBITION; item: "CC(C)(C)C(=O)NCCC(=O)NCCc1ccn(-c2ccccc2)n1" ; system: Plasmodium berghei
Return: 23.4

Enquiry: Name the value of INHIBITION reported for "COc1cccc(CN2CCC3(CCN(c4ncc(F)cn4)CC3)C2)c1" when tested on Plasmodium berghei.
Return: 46.7

Enquiry: State recorded INHIBITION with Plasmodium berghei, entry "COCc1ccc(C(=O)N2CCC(Oc3ccccc3)(C(=O)O)CC2)o1" , no comment.
Return: -11.6

Enquiry: Under Plasmodium berghei: report INHIBITION of CSCc1nc(CCNC(=O)C(N)c2c(C)n[nH]c2C)cs1 (configuration not stated) .
Return: 21.2

Enquiry: Using Plasmodium berghei as the test system, report measured INHIBITION of CNc1cc(N2CCCC2CNCc2csc(C(C)C)n2)ncn1 (configuration not stated) .
Return: 46.2

Enquiry: State the measured INHIBITION (Plasmodium berghei) of Cn1nnc2c1CCN(Cc1ccccc1)C2COCC1CC1 (configuration not stated)
Return: 33.5

Enquiry: Under Plasmodium berghei, report INHIBITION for CC(=O)N1CC(C(=O)N2CCCC(Cn3ccnc3C)C2)C1 (configuration not stated)
Return: -3.7

Enquiry: State recorded INHIBITION with Plasmodium berghei, entry "CCOc1ccc(N(C)S(=O)(=O)c2c[nH]c(C(C)C)n2)cc1" , no comment.
Return: 10.3

Every entry's value here was drawn from ChEMBL document CHEMBL4513216.
